Entries annotated with measured IC50
tested on: K562; assay: Cytotoxicity against human K562 cells after 72 hrs by MTT assay; assay type: functional, cell-based; settings: K562, 72 h
Kindly answer with a numeric value in nM, unit omitted.

Solved entries (count: 2):
structure_notation | IC50 (nM)
O=C(/C=C/c1ccc(F)cc1)O[C@@H]1[C@H]2OC(=O)C[C@H]2O[C@@H]1[C@@H](O)c1ccccc1 | 850
O=C(/C=C/c1ccccc1)O[C@@H]1[C@H]2OC(=O)C[C@H]2O[C@@H]1[C@@H](OC(=O)/C=C/c1ccccc1)c1ccccc1 | 2150

Now consider a different compound.
// query Entry O=C(/C=C/c1ccc([N+](=O)[O-])cc1)O[C@H](c1ccccc1)[C@H]1O[C@@H]2CC(=O)O[C@@H]2[C@H]1O : reported IC50 = ?
// result 2250
